method summary: chemical genetic growth profiling, strain panel (AID 1159580);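 further: tested at 20 µM; growth read once vehicle control cultures reached saturation at 30 °C; 1 = growth at the plate median or of vehicle wells; lower values mean less growth of the strain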
condition context: S. cerevisiae deletion strains, growth OD, locus YML124C, strain tub3, hits give low values
The whole screen tested about 5,500 compounds, of which about 2,000 (36%) were called active. Another 18% or so got no clear call; they are omitted. Some of the results follow.
property measured: normalized growth
Field format: numeric only.

Can you look up the measured normalized growth of Nc1ccccc1C(=O)CC(N)C(=O)O (configuration not stated) for me? 0.994

Can you look up the measured normalized growth of C/C=C(/C)C(=O)O[C@@H]1[C@H](OC(C)=O)[C@@]2(CO)C(CC1(C)C)C1=CCC3[C@@]4(C)CC[C@H](O[C@@H]5O[C@H](C(=O)O)[C@@H](O[C@@H]6O[C@H](CO)[C@@H](O)[C@H](O)[C@H]6O)[C@H](O)[C@H]5O[C@@H]5O[C@H](CO)[C@@H](O)[C@H](O)[C@H]5O)[C@](C)(CO)C4CC[C@@]3(C)[C@]1(C)C[C@H]2O (some centres not stated) for me? 1.02

Can you look up the measured normalized growth of CC(C)(Sc1cc(C(C)(C)C)c(O)c(C(C)(C)C)c1)Sc1cc(C(C)(C)C)c(O)c(C(C)(C)C)c1 for me? 1.02

Can you look up the measured normalized growth of CCOC(=O)OC(C)OC(=O)C1N2C(=O)C(NC(=O)[C@H](N)c3ccccc3)C2SC1(C)C (some centres not stated) for me? 0.987

Can you look up the measured normalized growth of CC1(C)CC[C@@]2(C(=O)O)C(C1)C1=CCC3[C@@]4(C)CC[C@H](O)C(C)(C)C4CC[C@@]3(C)[C@]1(C)C[C@@H]2O (some centres not stated) for me? 1.05

Can you look up the measured normalized growth of C#C[C@]1(O)CCC2C3CCC4=C(CCC(=O)C4)C3CC[C@@]21C (some centres not stated) for me? 1.01

Can you look up the measured normalized growth of COC(=O)/C(C)=C\CC12OC(C)(C)C3CC(C=C4C(=O)c5c(O)c6c(c(CCC(C)(C)Cl)c5OC431)OC1(C)CCC(=C(C)C)C6C1)C2=O (configuration not stated) for me? 1.02

Can you look up the measured normalized growth of O=C(COc1ccc(Cl)cc1)N1CCN(Cc2ccc3c(c2)OCO3)CC1 for me? 0.998

Can you look up the measured normalized growth of CC(C)=CCCC1(C)C=Cc2c(O)c3c(c(CC=C(C)C)c2O1)OC12C(=CCCC1C(C)(C)O[C@@]2(C/C=C(\C)C(=O)O)C(=O)O)C3=O (some centres not stated) for me? 0.948

Can you look up the measured normalized growth of CC(=O)OC1CC[C@@]2(C)C(CC[C@]3(C)C2CCC2C4CC(C)(C)CCC4(C(=O)O)CC[C@]23C)C1(C)C (some centres not stated) for me? 0.991

Can you look up the measured normalized growth of CC(=O)OC1CC(OC(C)=O)C2(C)C(CC(OC(C)=O)C3(C)C4=CC(=O)OC(=O)C4(C)CCC32)C1(C)C (configuration not stated) for me? 0.998

Can you look up the measured normalized growth of COc1cccc(OC)c1OCCNCC1COc2ccccc2O1 (configuration not stated) for me? 0.989

Can you look up the measured normalized growth of Nc1ccc(S(=O)(=O)c2ccc(N)cc2)cc1 for me? 1.02

Can you look up the measured normalized growth of C#C[C@]1(O)CCC2C3CCC4=CC(=O)CC[C@@H]4C3CC[C@@]21C (some centres not stated) for me? 0.98

Can you look up the measured normalized growth of COC(=O)C[C@H]1C(C)(C)C2(O)OC34CC2C(=O)[C@]1(C)C3CC[C@]1(C)C4=CC(=O)O[C@H]1c1ccoc1 (some centres not stated) for me? 1.01

Can you look up the measured normalized growth of C[C@@H]1OC(O[C@H]2C(O[C@H]3CC[C@@]4(C)C(CC[C@]5(C)C4CC=C4C6CC(C)(C)CC[C@]6(C(=O)O)CC[C@]45C)[C@]3(C)CO)OC[C@H](O)[C@@H]2O)[C@H](O)[C@H](O)[C@H]1O (some centres not stated) for me? 0.0681

Can you look up the measured normalized growth of C[C@]12CCC(=O)C=C1CCC1C2[C@@H](O)C[C@@]2(C)C1CC[C@]2(O)C(=O)CO (some centres not stated) for me? 0.994

Can you look up the measured normalized growth of COc1c(CC(=O)c2cc3c(cc2O)OC(C)(C)C(O)C3)ccc2c1C=CC(C)(C)O2 (configuration not stated) for me? 0.984

Can you look up the measured normalized growth of CC(=O)O[C@H]1CC[C@@]2(C)C(CC[C@]3(C)C2CC=C2C4CC(C)(C)CC[C@]4(C)CC[C@]23C)C1(C)C (some centres not stated) for me? 1.01

Can you look up the measured normalized growth of C[C@@H]1OC(O[C@H]2[C@H](OC(=O)[C@]34CCC(C)(C)CC3C3=CCC5[C@@]6(C)CC[C@H](OC7O[C@@H](C)[C@H](O[C@@H]8OC[C@@H](O)[C@H](O)[C@H]8O)[C@@H](O)[C@H]7O)C(C)(C)C6CC[C@@]5(C)[C@]3(C)CC4O)OC[C@H](O)[C@H]2O)[C@H](O)[C@H](O)[C@H]1O[C@@H]1O[C@H](CO)[C@@H](O)[C@H](O)[C@H]1O (some centres not stated) for me? 0.993

Can you look up the measured normalized growth of CC(=O)NC(C(=O)O)C(C)(C)SN=O (configuration not stated) for me? 0.993

Can you look up the measured normalized growth of C[C@H]1[C@H](C)CC[C@]2(CO)CC[C@]3(C)C(=CCC4[C@@]5(C)CC[C@H](O)C(C)(C)C5CC[C@]43C)[C@H]12 (some centres not stated) for me? 1.03

Can you look up the measured normalized growth of CC1(C)CC[C@]2(C(=O)O)CC[C@]3(C)C(=CCC4[C@@]5(C)CC[C@H](O)[C@@](C)(CO)C5CC[C@]43C)C2C1 (some centres not stated) for me? 0.996

Can you look up the measured normalized growth of O=c1[nH]cc(F)c(=O)[nH]1 for me? 0.914

Can you look up the measured normalized growth of Cc1cc(C(C)(C)C)c(O)c(C(C)(C)C)c1 for me? 0.995

Can you look up the measured normalized growth of C[C@@H]1OC(O[C@H]2[C@H](O)[C@@H](O)[C@H](OC[C@H]3O[C@@H](OC(=O)[C@]45CCC(C)(C)CC4C4=CCC6[C@@]7(C)CC[C@H](OC8OC[C@H](O)[C@H](O)[C@H]8OC8O[C@@H](C)[C@H](O)[C@@H](O)[C@H]8O)[C@@](C)(CO)C7CC[C@@]6(C)[C@]4(C)CC5)[C@H](O)[C@@H](O)[C@@H]3O)O[C@@H]2CO)[C@H](O)[C@H](O)[C@H]1O (some centres not stated) for me? 0.991

Can you look up the measured normalized growth of C[C@@H]1CC[C@]2(C(=O)O)CC[C@]3(C)C(=CCC4[C@@]5(C)CC[C@H](O)C(C)(C)C5CC[C@]43C)C2[C@H]1C (some centres not stated) for me? 0.999

* * *

method summary: chemical genetic growth profiling, strain panel (AID 1159580);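 further: tested at 20 µM; growth read once vehicle control cultures reached saturation at 30 °C; 1 = growth at the plate median or of vehicle wells; lower values mean less growth of the strain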
condition context: S. cerevisiae deletion strains, growth OD, locus YGL173C, strain kem1, hits give low values
Screen size: about 5,500 compounds; about 2,000 (36%) were called active. About 18% were inconclusive and are not listed. The list shows a part of the results.
The label T is reserved for normalized growth strictly under 1; F covers values equal to or above it.

Quick check: normalized growth of CC(C)=CCCC1(C)C=Cc2c(O)c3c(c(CC=C(C)C)c2O1)OC12C(=CC4CC1C(C)(C)OC2(C/C=C(/C)C(=O)O)C4=O)C3=O (centres undefined) under 1? T

Quick check: normalized growth of CC(C)=CCCC1(C)C=Cc2c(O)c3c(c(CC=C(C)C)c2O1)OC12C(=CCCC1C(C)(C)O[C@@]2(C/C=C(\C)C(=O)O)C(=O)O)C3=O (some centres undefined) under 1? T

Quick check: normalized growth of NNC(=O)c1ccncc1 under 1? F

Quick check: normalized growth of C#C[C@]1(O)CCC2C3CCC4=C(CCC(=O)C4)C3CC[C@@]21C (some centres undefined) under 1? T

* * *

method summary: chemical genetic growth profiling, strain panel (AID 1159580);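 further: tested at 20 µM; growth read once vehicle control cultures reached saturation at 30 °C; 1 = growth at the plate median or of vehicle wells; lower values mean less growth of the strain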
condition context: S. cerevisiae deletion strains, growth OD, locus YCL069W, strain vba3, hits give low values
The whole screen tested about 5,500 compounds, of which about 2,000 (36%) were called active. Another 18% or so got no clear call; they are omitted. This is one part of the list.
property measured: normalized growth
Field format: numeric only.

Can you look up the measured normalized growth of C[C@@H]1CC[C@H]2[C@@H](C)C(=O)O[C@@H]3O[C@@]4(C)CC[C@@H]1[C@]32OO4 for me? 0.924

Can you look up the measured normalized growth of CC1(C)CC[C@]2(C)CC[C@]3(C)C(=CCC4[C@@]5(C)CC[C@H](O)C(C)(C)C5CC[C@]43C)C2C1 (stereo not given in full) for me? 0.995

Can you look up the measured normalized growth of NC(N)=N/N=C/c1c(Cl)cccc1Cl for me? 0.973

Can you look up the measured normalized growth of C/C=C(/C)C(=O)O[C@@H]1[C@H](OC(C)=O)[C@@]2(CO)C(CC1(C)C)C1=CCC3[C@@]4(C)CC[C@H](O[C@@H]5O[C@H](C(=O)O)[C@@H](O[C@@H]6O[C@H](CO)[C@@H](O)[C@H](O)[C@H]6O)[C@H](O)[C@H]5O[C@@H]5O[C@H](CO)[C@@H](O)[C@H](O)[C@H]5O)[C@](C)(CO)C4CC[C@@]3(C)[C@]1(C)C[C@H]2O (stereo not given in full) for me? 0.987

Can you look up the measured normalized growth of CCOC(=O)OC(C)OC(=O)C1N2C(=O)C(NC(=O)[C@H](N)c3ccccc3)C2SC1(C)C (stereo not given in full) for me? 0.998

Can you look up the measured normalized growth of C#C[C@]1(O)CCC2C3CCC4=CC(=O)CC[C@@H]4C3CC[C@@]21CC (stereo not given in full) for me? 0.995

Can you look up the measured normalized growth of Cc1ccc(S(=O)(=O)NC(=O)NN2CC3CCCC3C2)cc1 (stereo not given) for me? 0.993

Can you look up the measured normalized growth of C[C@H]1[C@H](C)CC[C@]2(CO)CC[C@]3(C)C(=CCC4[C@@]5(C)CC[C@H](O)C(C)(C)C5CC[C@]43C)[C@H]12 (stereo not given in full) for me? 0.998

Can you look up the measured normalized growth of CC(C)CCCC1(C)C=Cc2c(O)c3c(c(CCC(C)C)c2O1)OC12C(CC4CC1C(C)(C)OC2(CCC(C)C(=O)O)C4O)C3=O (stereo not given) for me? 0.998

Can you look up the measured normalized growth of C[C@@H]1C(=O)O[C@H]2[C@H]1CC[C@@]1(C)C=CC(=O)[C@@]3(C)O[C@@]213 for me? 1.03

Can you look up the measured normalized growth of C[C@@H]1CC[C@]2(C(=O)O)CC[C@]3(C)C(=CCC4[C@@]5(C)CC[C@H](O)C(C)(C)C5CC[C@]43C)C2[C@H]1C (stereo not given in full) for me? 1.01

Can you look up the measured normalized growth of CC1(C)CC[C@]2(C(=O)O)CC[C@]3(C)C(=CCC4[C@@]5(C)CC[C@@H](O)C(C)(C)C5CC[C@]43C)C2C1 (stereo not given in full) for me? 1.02

Can you look up the measured normalized growth of CCC(C)C(=O)O[C@H]1[C@H](O)C2C(CN3CC(C)CCC3[C@@]2(C)O)C2C[C@]34O[C@]5(O)C(OC(=O)C(C)(O)CC)CC[C@@]3(C)C5C(OC(C)=O)[C@@H](OC(C)=O)C4[C@@]21O (stereo not given in full) for me? 1.02

Can you look up the measured normalized growth of CC1(C)CCC2(C(=O)O)CCC3(C)C(=CCC4C5(C)CCC(O)C(C)(C)C5C(O)CC43C)C2C1 (stereo not given) for me? 1.03

Can you look up the measured normalized growth of N=C(N)SCCN for me? 1.01
